The origin of these recorded values is ChEMBL document CHEMBL1140367.

# Tested on: Melanocortin receptor 5 (Homo sapiens, UniProt P33032)
# Sequence (P33032 whole entry): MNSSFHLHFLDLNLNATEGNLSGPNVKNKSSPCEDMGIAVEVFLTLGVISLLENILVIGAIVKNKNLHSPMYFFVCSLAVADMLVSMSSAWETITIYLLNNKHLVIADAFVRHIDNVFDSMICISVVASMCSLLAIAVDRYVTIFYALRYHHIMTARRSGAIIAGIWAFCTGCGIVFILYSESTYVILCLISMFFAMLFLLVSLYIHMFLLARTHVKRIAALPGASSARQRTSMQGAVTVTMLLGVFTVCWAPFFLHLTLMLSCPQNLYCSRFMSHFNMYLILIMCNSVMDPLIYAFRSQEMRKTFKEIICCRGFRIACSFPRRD
# Protocol text: Inhibition concentration (binding affinity) exhibited against human melanocortin receptor 5 by radio labeled ligand assay (Displacement of [125I]NDP-alpha-MSH from the human receptors expressed in CHO cells)
# Format: functional, cell-based
Item-by-item account of EC50

[
  {
    "Entry smiles": "CN1C[C@H]2CC[C@@H]1[C@@H](C(=O)N[C@H](Cc1ccc(F)cc1)C(=O)N1CCC(C(=O)NC(C)(C)C)(C3CCCCC3)CC1)C2",
    "Tested on": "Melanocortin receptor 5 (Homo sapiens, UniProt P33032)",
    "EC50 / nM": 850
  },
  {
    "Entry smiles": "CC(C)(C)NC(=O)C1(C2CCCCC2)CCN(C(=O)[C@@H](Cc2ccc(F)cc2)NC(=O)[C@H]2C[C@H]3CC[C@@H]2NC3)CC1",
    "Tested on": "Melanocortin receptor 5 (Homo sapiens, UniProt P33032)",
    "EC50 / nM": 1980
  }
]

====

# Protocol text: Bioavailability in beagles as a solution in water at 0.5 mg/kg, iv and 2.0 mg/kg, po.
# Assay type: ADME, organism-based, Canis lupus familiaris
# Cond: beagle, dog, in vivo

[
  {
    "Entry smiles": "CN1C[C@H]2CC[C@@H]1[C@H](C(=O)N[C@H](Cc1ccc(F)cc1)C(=O)N1CCC(C(=O)NC(C)(C)C)(C3CCCCC3)CC1)C2",
    "bioavailability / %": 50
  }
]

====

# Protocol text: […] in rhesus as a solution in water at 0.5 mg/kg, iv and 2 mg/kg po.
# Assay type: organism-based
# Cond: cercopithecidae, in vivo
Readout label: Tmax (h)

[
  {
    "Entry smiles": "CN1C[C@H]2CC[C@@H]1[C@H](C(=O)N[C@H](Cc1ccc(F)cc1)C(=O)N1CCC(C(=O)NC(C)(C)C)(C3CCCCC3)CC1)C2",
    "Quantitative result": 1.3
  }
]

====

# Protocol text: Clearance in Sprague Dawley rats as a solution in water at 1 mg/kg, iv and 20 mg/kg, po.
# Type: ADME, organism-based
# Cond: rat, in vivo

[
  {
    "Entry smiles": "CN1C[C@H]2CC[C@@H]1[C@H](C(=O)N[C@H](Cc1ccc(F)cc1)C(=O)N1CCC(C(=O)NC(C)(C)C)(C3CCCCC3)CC1)C2",
    "Readout unit": "mL/min/kg",
    "clearance": 46.9
  }
]

====

# Tested on: Melanocortin receptor 3 (Homo sapiens, UniProt P41968)
# Sequence (P41968 whole entry): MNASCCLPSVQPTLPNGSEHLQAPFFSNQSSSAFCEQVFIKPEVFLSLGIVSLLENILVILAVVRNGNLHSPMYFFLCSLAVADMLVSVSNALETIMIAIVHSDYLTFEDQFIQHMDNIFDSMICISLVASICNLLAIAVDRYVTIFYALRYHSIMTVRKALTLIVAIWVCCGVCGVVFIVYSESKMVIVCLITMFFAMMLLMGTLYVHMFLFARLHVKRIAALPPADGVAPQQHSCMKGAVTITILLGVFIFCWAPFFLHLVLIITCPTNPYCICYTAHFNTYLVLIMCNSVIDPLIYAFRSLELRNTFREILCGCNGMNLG
# Protocol text: Inhibition concentration (binding affinity) against human melanocortin receptor 3 by displacement of [125I]NDP-alpha-MSH from the human receptors expressed in CHO cells

[
  {
    "Molecule": "CN1C[C@@H]2CC[C@H]1[C@@H](C(=O)N[C@H](Cc1ccc(F)cc1)C(=O)N1CCC(C(=O)NC(C)(C)C)(C3CCCCC3)CC1)C2",
    "Readout unit": "µM",
    "IC50": 0.41
  },
  {
    "Molecule": "CC(C)(C)NC(=O)C1(C2CCCCC2)CCN(C(=O)[C@@H](Cc2ccc(F)cc2)NC(=O)[C@H]2C[C@H]3CC[C@@H]2NC3)CC1",
    "Readout unit": "µM",
    "IC50": 2.06
  },
  {
    "Molecule": "CC(C)(C)NC(=O)C1(C2CCCCC2)CCN(C(=O)[C@@H](Cc2ccc(F)cc2)NC(=O)C2CC3CCC2NC3)CC1 (single isomer, unassigned)",
    "Readout unit": "µM",
    "IC50": 0.62
  },
  {
    "Molecule": "CN1C[C@H]2CC[C@@H]1[C@@H](C(=O)N[C@H](Cc1ccc(F)cc1)C(=O)N1CCC(C(=O)NC(C)(C)C)(C3CCCCC3)CC1)C2",
    "Readout unit": "µM",
    "IC50": 1.35
  },
  {
    "Molecule": "CC(C)(C)NC(=O)C1(C2CCCCC2)CCN(C(=O)[C@@H](Cc2ccc(F)cc2)NC(=O)[C@H]2C[C@@H]3CC[C@@H]2NC3)CC1",
    "Readout unit": "µM",
    "IC50": 0.62
  }
]

====

# Tested on: Melanocortin receptor 3 (Homo sapiens, UniProt P41968)
# Protocol text: Percentage of cAMP accumulation at 10 uM compound relative to alpha-MSH for melanocortin receptor 3
# Type: functional
Readout label: Max (%)

[
  {
    "Compound": "CN1C[C@@H]2CC[C@H]1[C@@H](C(=O)N[C@H](Cc1ccc(F)cc1)C(=O)N1CCC(C(=O)NC(C)(C)C)(C3CCCCC3)CC1)C2",
    "Readout label": "Max",
    "Readout unit": "%",
    "Quantitative result": 4
  },
  {
    "Compound": "CC(C)(C)NC(=O)C1(C2CCCCC2)CCN(C(=O)[C@@H](Cc2ccc(F)cc2)NC(=O)[C@H]2C[C@H]3CC[C@@H]2NC3)CC1",
    "Readout label": "Max",
    "Readout unit": "%",
    "Quantitative result": 10
  },
  {
    "Compound": "CN1C[C@H]2CC[C@@H]1[C@@H](C(=O)N[C@H](Cc1ccc(F)cc1)C(=O)N1CCC(C(=O)NC(C)(C)C)(C3CCCCC3)CC1)C2",
    "Readout label": "Max",
    "Readout unit": "%",
    "Quantitative result": 5
  },
  {
    "Compound": "CC(C)(C)NC(=O)C1(C2CCCCC2)CCN(C(=O)[C@@H](Cc2ccc(F)cc2)NC(=O)C2CC3CCC2NC3)CC1 (single isomer, unassigned)",
    "Readout label": "Max",
    "Readout unit": "%",
    "Quantitative result": 4
  },
  {
    "Compound": "CN1C[C@H]2CC[C@@H]1[C@H](C(=O)N[C@H](Cc1ccc(F)cc1)C(=O)N1CCC(C(=O)NC(C)(C)C)(C3CCCCC3)CC1)C2",
    "Readout label": "Max",
    "Readout unit": "%",
    "Quantitative result": 8
  }
]

====

# Protocol text: Half life in rhesus as a solution in water at 0.5 mg/kg, iv and 2 mg/kg po.
# Type: ADME, organism-based
# Cond: cercopithecidae, in vivo
Readout label: half-life (h)

[
  {
    "Entry smiles": "CN1C[C@H]2CC[C@@H]1[C@H](C(=O)N[C@H](Cc1ccc(F)cc1)C(=O)N1CCC(C(=O)NC(C)(C)C)(C3CCCCC3)CC1)C2",
    "Quantitative result": 4.6
  }
]

====

# Protocol text: Clearance in rhesus as a solution in water at 0.5 mg/kg, iv and 2 mg/kg po.
# Format: ADME, organism-based
# Cond: cercopithecidae, in vivo

[
  {
    "Entry smiles": "CN1C[C@H]2CC[C@@H]1[C@H](C(=O)N[C@H](Cc1ccc(F)cc1)C(=O)N1CCC(C(=O)NC(C)(C)C)(C3CCCCC3)CC1)C2",
    "clearance [mL/min/kg]": 3.4
  }
]

====

# Tested on: Melanocortin receptor 4 (Rattus norvegicus, UniProt P70596)
# Sequence (P70596 whole entry): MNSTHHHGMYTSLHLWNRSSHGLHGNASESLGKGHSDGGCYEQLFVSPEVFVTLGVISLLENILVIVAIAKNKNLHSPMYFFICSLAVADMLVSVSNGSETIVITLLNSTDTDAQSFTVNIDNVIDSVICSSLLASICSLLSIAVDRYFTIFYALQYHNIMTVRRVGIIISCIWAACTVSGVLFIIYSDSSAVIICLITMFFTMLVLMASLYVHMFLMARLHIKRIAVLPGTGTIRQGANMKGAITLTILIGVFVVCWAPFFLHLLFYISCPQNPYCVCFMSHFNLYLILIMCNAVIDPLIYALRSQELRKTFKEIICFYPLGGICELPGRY
# Protocol text: Concentration of compound at 50% maximum cAMP accumulation in rat melanocortin receptor (rMC4R)

[
  {
    "Entry smiles": "CN1C[C@H]2CC[C@@H]1[C@H](C(=O)N[C@H](Cc1ccc(F)cc1)C(=O)N1CCC(C(=O)NC(C)(C)C)(C3CCCCC3)CC1)C2",
    "EC50": "5 µM"
  }
]

====

# Protocol text: Volume of distribution in beagles as a solution in water at 0.5 mg/kg, iv and 2.0 mg/kg, po.
# Assay type: ADME, organism-based, Canis lupus familiaris
# Cond: beagle, dog, in vivo, read-out: Vdss

[
  {
    "Entry smiles": "CN1C[C@H]2CC[C@@H]1[C@H](C(=O)N[C@H](Cc1ccc(F)cc1)C(=O)N1CCC(C(=O)NC(C)(C)C)(C3CCCCC3)CC1)C2",
    "Vd": "2.3 L/kg"
  }
]

====

# Tested on: UniProt:P56450
# Sequence (P56450 whole entry): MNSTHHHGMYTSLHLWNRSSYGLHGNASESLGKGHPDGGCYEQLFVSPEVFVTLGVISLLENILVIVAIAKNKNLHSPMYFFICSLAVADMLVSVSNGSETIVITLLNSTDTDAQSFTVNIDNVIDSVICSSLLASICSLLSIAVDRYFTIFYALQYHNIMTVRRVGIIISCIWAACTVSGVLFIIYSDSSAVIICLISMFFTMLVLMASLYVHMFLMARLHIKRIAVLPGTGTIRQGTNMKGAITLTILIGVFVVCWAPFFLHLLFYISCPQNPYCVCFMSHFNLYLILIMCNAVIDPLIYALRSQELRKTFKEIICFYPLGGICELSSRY
# Protocol text: Inhibition concentration (binding affinity) against mouse melanocortin receptor 4 by displacement of [125I]NDP-alpha-MSH from the human receptors expressed in CHO cells
# Format: cell-based
pIC50: −log10 of the molar value.
Readout label: pIC50

[
  {
    "Entry smiles": "CN1C[C@H]2CC[C@@H]1[C@H](C(=O)N[C@H](Cc1ccc(F)cc1)C(=O)N1CCC(C(=O)NC(C)(C)C)(C3CCCCC3)CC1)C2",
    "Quantitative result": 5.52
  }
]

====

# Tested on: Melanocortin receptor 4 (Homo sapiens, UniProt P32245)
# Sequence (P32245 whole entry): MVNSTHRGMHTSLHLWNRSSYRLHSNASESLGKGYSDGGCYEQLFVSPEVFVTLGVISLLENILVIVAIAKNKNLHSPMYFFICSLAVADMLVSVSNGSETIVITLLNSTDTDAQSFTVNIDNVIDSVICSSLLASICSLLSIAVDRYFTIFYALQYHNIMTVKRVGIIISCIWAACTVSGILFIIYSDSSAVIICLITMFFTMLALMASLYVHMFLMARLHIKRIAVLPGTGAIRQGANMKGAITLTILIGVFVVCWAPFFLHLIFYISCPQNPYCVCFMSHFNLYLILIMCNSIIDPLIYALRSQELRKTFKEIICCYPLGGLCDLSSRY
# Protocol text: Inhibition concentration (binding affinity) against human melanocortin receptor 4 by displacement of [125I]NDP-alpha-MSH from the human receptors expressed in CHO cells

[
  {
    "Compound": "CC(C)(C)NC(=O)C1(C2CCCCC2)CCN(C(=O)[C@@H](Cc2ccc(F)cc2)NC(=O)[C@H]2C[C@@H]3CC[C@@H]2NC3)CC1",
    "Tested on": "Melanocortin receptor 4 (Homo sapiens, UniProt P32245)",
    "Readout unit": "nM",
    "IC50": 14
  },
  {
    "Compound": "CC(C)(C)NC(=O)C1(C2CCCCC2)CCN(C(=O)[C@@H](Cc2ccc(F)cc2)NC(=O)[C@H]2C[C@H]3CC[C@@H]2NC3)CC1",
    "Tested on": "Melanocortin receptor 4 (Homo sapiens, UniProt P32245)",
    "Readout unit": "nM",
    "IC50": 41
  },
  {
    "Compound": "CN1C[C@H]2CC[C@@H]1[C@@H](C(=O)N[C@H](Cc1ccc(F)cc1)C(=O)N1CCC(C(=O)NC(C)(C)C)(C3CCCCC3)CC1)C2",
    "Tested on": "Melanocortin receptor 4 (Homo sapiens, UniProt P32245)",
    "Readout unit": "nM",
    "IC50": 28
  },
  {
    "Compound": "CC(C)(C)NC(=O)C1(C2CCCCC2)CCN(C(=O)[C@@H](Cc2ccc(F)cc2)NC(=O)C2CC3CCC2NC3)CC1 (single isomer, unassigned)",
    "Tested on": "Melanocortin receptor 4 (Homo sapiens, UniProt P32245)",
    "Readout unit": "nM",
    "IC50": 16
  },
  {
    "Compound": "CN1C[C@@H]2CC[C@H]1[C@@H](C(=O)N[C@H](Cc1ccc(F)cc1)C(=O)N1CCC(C(=O)NC(C)(C)C)(C3CCCCC3)CC1)C2",
    "Tested on": "Melanocortin receptor 4 (Homo sapiens, UniProt P32245)",
    "Readout unit": "nM",
    "IC50": 6
  }
]
